- Tested on: MDA-MB-435 melanoma
- protocolText: NCI-60 one-dose screen, 48 h
- measurementParameters: 10 µM unless noted
Compounds without any hit were thinned out: in the full panel of roughly 83,000, 20% have a hit. Activity calls are given as the source filed them. How the source made its calls: active means growth percent below 10; inactive means the rest.
Please state which outcome applies, choosing from t (active), f (inactive)

The examples below pair each entry with its known result.
{"compound": "O=C1OCC2=C1C(c1ccccc1)c1cc3c(cc1N2CCO)OCCO3 (stereo not drawn)", "category": "t"}
{"compound": "CCOC(=O)C/C(=N\\Nc1cc(=O)[nH]c2ccc(C)cc12)C(=O)OCC", "category": "f"}

Please look at the following compound next.
Input: Fill in: this test's call for CN1CCN(Cc2ccc(NC(=O)c3cncc(C#Cc4cnc(N)cc4C#N)c3)cc2C(F)(F)F)CC1 is ___
Output: t
